I'd appreciate it if you could supply composite z-score values for the items below.
target: Alpha-bungarotoxin (Bungarus multicinctus) (UniProt P60615); test: alpha-bungarotoxin binders on microarray, profiling panel, artefact control for SMM control protein annotation, biochemical, small-molecule microarray, Alexa647 label, 635/667 nm fluorescence (AID 1117); conditions: alpha-BTX-A647 binding fluorescence, higher = more signal
Sequence (P60615 whole entry, looked up): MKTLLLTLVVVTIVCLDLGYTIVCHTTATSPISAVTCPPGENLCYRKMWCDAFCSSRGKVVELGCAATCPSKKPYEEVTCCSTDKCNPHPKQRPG
Write no unit; give the number alone.

Ask: Using the record for `CCN1C(=O)[C@H]2[C@H]3[C@H](O)[C@H](O)CC(=NNC(=O)OCc4ccc(OC)cc4)[C@H]3CC[C@H]2C1=O` , report its composite z-score.
Result: 0.379

Ask: Using the record for `CCN1C(=O)[C@H]2[C@H]3[C@H](O)[C@H](O)CC(=NOC)[C@@H]3CC[C@H]2C1=O` , report its composite z-score.
Result: 0.178

Ask: Using the record for `CCCNC(=O)OC[C@H]1O[C@H](CCON=C(C)CCC(=O)OC[C@H]2O[C@H](C#Cc3ccccc3)C=C[C@@H]2Oc2ccc(C)cc2)C=C[C@@H]1Oc1ccc(OC)cc1` , report its composite z-score.
Result: 0.0642

Ask: Using the record for `C[C@@H]1CC[C@@H](C(=O)O)N[C@H]1c1ccc(-c2ccco2)cc1` , report its composite z-score.
Result: 0.0848

Ask: Using the record for `CCOC(=O)CCN1C(=O)[C@H]2[C@H]3[C@H](O)[C@H](O)CC(=NNC(=O)OCC)[C@@H]3CC[C@H]2C1=O` , report its composite z-score.
Result: 0.353

Ask: Using the record for CCOC(=O)[C@H](Cc1ccccc1)NC(=O)CCC1CC(OC(=O)NCc2cccc3ccccc23)CC2(CCCC(COC(=O)NCCCN3CCCC3=O)O2)O1 (stereo partly drawn) , report its composite z-score.
Result: 0.552

Ask: Using the record for `CO[C@H]1COC(=O)[C@H](C)NC(=O)CC=C[C@@H](C)[C@H](OC)COC(=O)CC=C[C@@H]1C` , report its composite z-score.
Result: -0.0006

Ask: Using the record for `CO[C@@H]1C=CCC(=O)N2CCC[C@H]2C(=O)OC[C@H](C)C(=O)OC[C@H]1C` , report its composite z-score.
Result: -0.0037
